target: HLA-B*51:01; assay: IEDB peptide-MHC binding, purified MHC/direct/fluorescence; filed as Kd, often an IC50 or EC50 that approximates it; bounds were set here for any values at or beyond the usual limits of such assays; conditions: source organism: Listeria monocytogenes serotype 4b str. H7858
pKd: −log10 of the molar value.
Consider the following sequences; for each one, report its pKd.

Could you tell me which pKd is on file for ERYPGGVSL ?
≤ 4.70

# get_value(readout='pKd', item= FPDGKPFTL )
≤ 4.70

---

molecular target: HLA-A*32:01; assay: IEDB peptide-MHC binding, purified MHC/competitive/radioactivity; filed as Kd, often an IC50 or EC50 that approximates it; bounds were set here for any values at or beyond the usual limits of such assays; details: source organism: Mammarenavirus guanaritoense
observation_type: Kd (µM)
Report as a plain number; the unit µM is understood.

Value lookup for Kd; key = STGNYVHCF
12.1

---

target: HLA-A*24:03; assay: IEDB peptide-MHC binding, purified MHC/direct/fluorescence; filed as Kd, often an IC50 or EC50 that approximates it; bounds were set here for any values at or beyond the usual limits of such assays; settings: source organism: Influenza A virus (A/Duck/Shantou/1881/00(H9N2))
observation_type: pKd
Bear in mind: pKd is minus log10 of a mol/L concentration; give just that figure.

Suppose we examine the sequence SLPPNFSSL ; what pKd value has been reported?
8.12

---

Give measured Kd for each item. Keep answers brief.
biological target: HLA-A*02:03; experiment: IEDB peptide-MHC binding, purified MHC/competitive/radioactivity; filed as Kd, often an IC50 or EC50 that approximates it; bounds were set here for any values at or beyond the usual limits of such assays; conditions: source organism: Dengue virus 4 Philippines/H241/1956
# value in nM; strip the unit string

Find the recorded Kd belonging to AVFKMSPGYV and report it.
7.15

Would you mind telling me what Kd value was observed for KLSMGLIAIA ?
22.9

What measured Kd goes with TLMLVALLGA ?
14.4

---

molecular target: HLA-C*05:01; assay: IEDB peptide-MHC binding, purified MHC/direct/fluorescence; filed as Kd, often an IC50 or EC50 that approximates it; bounds were set here for any values at or beyond the usual limits of such assays; details: source organism: Reston ebolavirus - Reston (1989)
observation_type: Kd (nM)
Could you give me the number in nM? Just the number is fine.

Record FSDLCNFLI : what is its Kd with HLA-C*05:01?
9

---

biological target: HLA-B*39:01; assay: IEDB peptide-MHC binding, purified MHC/competitive/fluorescence; filed as Kd, often an IC50 or EC50 that approximates it; bounds were set here for any values at or beyond the usual limits of such assays; conditions: source organism: Salmonella enterica subsp. enterica serovar Paratyphi A str. AKU_12601
observation_type: Kd

Value wanted: Kd (HLA-B*39:01) of entry AMDTHLYFE
≥ 20 µM

---

target: HLA-A*02:01; assay: IEDB peptide-MHC binding, purified MHC/direct/fluorescence; filed as Kd, often an IC50 or EC50 that approximates it; bounds were set here for any values at or beyond the usual limits of such assays; settings: source organism: Yellow fever virus
observation_type: Kd

Requested field: Kd. Item: TKDTNDNNL
≥ 20 µM

---

molecular target: HLA-A*02:01; test: IEDB peptide-MHC binding, purified MHC/competitive/radioactivity; bounds were set here for any values at or beyond the usual limits of such assays; conditions: source organism: Human papillomavirus 16
observation_type: IC50 (nM)
Answer format: numeric, nM implied, no suffix.

Any idea what its IC50 is? The sequence is VLLLWITAA
11

Query: IC50; subject: TLIDVCPI
33

---

target: HLA-B*45:06; test: IEDB peptide-MHC binding, purified MHC/competitive/fluorescence; filed as Kd, often an IC50 or EC50 that approximates it; bounds were set here for any values at or beyond the usual limits of such assays; conditions: source organism: Mycobacterium tuberculosis str. Haarlem
pKd: −log10 of the molar value.
observation_type: pKd

What value of pKd has been reported for the following sequence? YTPEQWWPF
≤ 5.30

---

target: HLA-A*03:01; test: IEDB peptide-MHC binding, purified MHC/competitive/fluorescence; filed as Kd, often an IC50 or EC50 that approximates it; bounds were set here for any values at or beyond the usual limits of such assays; conditions: source organism: Yersinia pestis Antiqua
observation_type: pKd
Entry type: numeric. Quantity: pKd, the -log10 of concentration in molar units.

Reported pKd for AMLDRILHH : what is it?
8.02

---

target: HLA-A*02:11; assay: IEDB peptide-MHC binding, purified MHC/competitive/fluorescence; filed as Kd, often an IC50 or EC50 that approximates it; bounds were set here for any values at or beyond the usual limits of such assays; conditions: source organism: Mycobacterium tuberculosis variant bovis BCG str. Pasteur 1173P2
observation_type: pKd
# log scale: pKd equals minus log10 of the concentration in mol/L

// returns reported pKd for input SLYEKSGSV
8.96

---

molecular target: HLA-B*35:01; test: IEDB peptide-MHC binding, purified MHC/competitive/radioactivity; filed as Kd, often an IC50 or EC50 that approximates it; bounds were set here for any values at or beyond the usual limits of such assays; conditions: source organism: Dengue virus 4 Philippines/H241/1956
For each record, write down the corresponding pKd.
Please keep in mind that pKd is minus log10 of the molar concentration; only the number is needed.

Consider the sequence MAMTCIAVG and give its measured pKd.
6.94

What does the data say about its pKd? Entry: EMCEDTVTY
6.17

---

target: HLA-B*15:17; assay: IEDB peptide-MHC binding, purified MHC/direct/fluorescence; filed as Kd, often an IC50 or EC50 that approximates it; bounds were set here for any values at or beyond the usual limits of such assays; conditions: source organism: Listeria monocytogenes
observation_type: Kd (nM)
Enter your answer as a number in nM; do not include the unit.

Param item = KSAYPFDEL ; retrieve measured Kd.
134

---

molecular target: HLA-A*69:01; experiment: IEDB peptide-MHC binding, purified MHC/direct/fluorescence; filed as Kd, often an IC50 or EC50 that approximates it; bounds were set here for any values at or beyond the usual limits of such assays; details: source organism: Listeria monocytogenes serotype 4b str. H7858
pKd: −log10 of the molar value.
observation_type: pKd

Need pKd, item ERYPGGVSL
≤ 4.70

---

biological target: HLA-B*18:01; assay: IEDB peptide-MHC binding, purified MHC/competitive/fluorescence; filed as Kd, often an IC50 or EC50 that approximates it; bounds were set here for any values at or beyond the usual limits of such assays; conditions: source organism: Zaire ebolavirus
observation_type: Kd

Notebook entry, HLA-B*18:01 assay: Kd of KLWTSISCA = ?
≥ 20 µM

---

molecular target: HLA-B*48:01; test: IEDB peptide-MHC binding, purified MHC/direct/fluorescence; filed as Kd, often an IC50 or EC50 that approximates it; bounds were set here for any values at or beyond the usual limits of such assays; conditions: source organism: Influenza A virus (A/swine/Italy/809/1989(H3N2))
pKd: −log10 of the molar value.
observation_type: pKd

Test system HLA-B*48:01; read-out pKd; what value for EEIRRIWRQ ?
≤ 4.70

---

molecular target: HLA-B*57:01; assay: IEDB peptide-MHC binding, purified MHC/competitive/fluorescence; filed as Kd, often an IC50 or EC50 that approximates it; bounds were set here for any values at or beyond the usual limits of such assays; conditions: source organism: Choclo virus
pKd: −log10 of the molar value.
observation_type: pKd

# query: pKd | item VMGVIGFGF | system: HLA-B*57:01
≤ 4.70

---

biological target: HLA-B*08:01; test: IEDB peptide-MHC binding, purified MHC/competitive/radioactivity; filed as Kd, often an IC50 or EC50 that approximates it; bounds were set here for any values at or beyond the usual limits of such assays; conditions: source organism: Dengue virus 4 Philippines/H241/1956
Classify: Satisfied when Kd is strictly less than 0.9 µM; Not satisfied when Kd is not.

Answer whether the sequence IKTTAKEVAL has Kd strictly less than 0.9 µM
Not satisfied

Dear colleague, could you confirm whether Kd of RKLTSRETAL falls below 0.9 µM? Thanks.
Satisfied

Lab note: Kd threshold 0.9 µM. Does this sequence come in strictly under it? HRRDLRLASM
Satisfied

Could you please tell me whether Kd recorded for IQPQWIAASI is less than 0.9 µM?
Satisfied

Does the reported Kd of the following sequence sit strictly below 0.9 µM? LHRMDLGVPL
Not satisfied

---

molecular target: HLA-A*69:01; assay: IEDB peptide-MHC binding, purified MHC/competitive/fluorescence; filed as Kd, often an IC50 or EC50 that approximates it; bounds were set here for any values at or beyond the usual limits of such assays; settings: source organism: Mycobacterium tuberculosis variant bovis BCG str. Pasteur 1173P2
observation_type: Kd

Fill blank: measured Kd of the sequence QVFKGVVIR is ____.
≥ 20 µM

For the sequence shown here, KPIPHRTVL , give the reported Kd.
≥ 20 µM
